- Tested on: SK-MEL-5 melanoma
- Assay details: NCI tumour cell line growth inhibition, 48 h
Label rule, in plain words: TGI of 30 µM and up is Criterion met, under 30 µM is Criterion not met.

Request: Exam item: decide whether the reported TGI for `CCCCCCCCCCCCCCCCNc1ccc2c(c1)OCCOCCOCCOCCO2` is at least 30 µM.
Response: Criterion not met

Request: Exam item: decide whether the reported TGI for CC1C(=O)CC[C@@]2(C)C(=O)CCCC12O (stereo partly specified) is at least 30 µM.
Response: Criterion met

Request: Exam item: decide whether the reported TGI for `Cc1cc2c(=O)c3ccccc3oc2c(C#N)c1C` is at least 30 µM.
Response: Criterion met

Request: Exam item: decide whether the reported TGI for O=C1C(Cl)C(c2cccc(Br)c2)N1c1c(O)c(Cl)cc(Br)c1Cl (stereo unspecified) is at least 30 µM.
Response: Criterion not met

Request: Exam item: decide whether the reported TGI for `CC(C)N(C(=O)c1ccc(NCc2cc(O)ccc2O)cc1)C(C)C` is at least 30 µM.
Response: Criterion met

Request: Exam item: decide whether the reported TGI for `N#CC(C#N)=Cc1ccc(Oc2ccccc2)cc1` is at least 30 µM.
Response: Criterion met

Request: Exam item: decide whether the reported TGI for C=CCCC(O)c1ccc(CCCCCCCCCCC)o1 (stereo unspecified) is at least 30 µM.
Response: Criterion met

Request: Exam item: decide whether the reported TGI for CNc1ccc(C(=O)CC(O)CCC(C)C2OC(=O)CC(O)CC(=O)CC(O)CC(O)CC(O)CC(O)CC3(O)CC(O)C(C(=O)NCCc4ccccn4)C(CC(OC4OC(C)C(O)C(N)C4O)/C=C/C=C/C=C/C=C\C=C/C=C/C=C/C2C)O3)cc1 (stereo unspecified) is at least 30 µM.
Response: Criterion not met

Request: Exam item: decide whether the reported TGI for `CN(C)C=Nc1c(Br)cc(Br)c2nonc12` is at least 30 µM.
Response: Criterion met

Request: Exam item: decide whether the reported TGI for `COc1ccc(/C(Cl)=C(\CNc2ccccn2)c2ccccc2)cc1OC` is at least 30 µM.
Response: Criterion met

Request: Exam item: decide whether the reported TGI for `O=C(Nc1ccc(O)c(NS(=O)(=O)c2ccc(F)cc2)c1)c1ccc(-c2ccccc2)cc1` is at least 30 µM.
Response: Criterion not met

Request: Exam item: decide whether the reported TGI for `COc1cc(S(=O)(=O)Nc2ccc(-c3csc(/N=C\C=C\c4ccccc4)n3)cc2)ccc1Cl` is at least 30 µM.
Response: Criterion met

Request: Exam item: decide whether the reported TGI for O=C(Nc1ccc(N2C(=O)CSC2c2cccs2)cc1)c1ccc(N2C(=O)CSC2c2cccs2)cc1 (stereo unspecified) is at least 30 µM.
Response: Criterion met

Request: Exam item: decide whether the reported TGI for `O=[N+]([O-])c1ccc(NN=C2c3ccccc3Cc3ccccc32)c([N+](=O)[O-])c1` is at least 30 µM.
Response: Criterion met

Request: Exam item: decide whether the reported TGI for `Clc1ccc2c(Cl)nc(-c3ccccc3)nc2c1` is at least 30 µM.
Response: Criterion met

Request: Exam item: decide whether the reported TGI for `O=C1C(Cl)=C(Nc2ccccn2)C(=O)c2ccccc21` is at least 30 µM.
Response: Criterion not met

Request: Exam item: decide whether the reported TGI for `Nc1nc(Sc2ccc([N+](=O)[O-])cn2)c2[nH]cnc2n1` is at least 30 µM.
Response: Criterion met

Request: Exam item: decide whether the reported TGI for O=C(OC(CNc1c(C(=O)c2ccccc2)c(=O)n(Cc2ccccc2)c(=O)n1Cc1ccccc1)CN1CCCCC1)c1ccccc1 (stereo unspecified) is at least 30 µM.
Response: Criterion met

Request: Exam item: decide whether the reported TGI for `O=C1c2ccccc2-n2c1nc1cc(Cl)ccc1c2=O` is at least 30 µM.
Response: Criterion met
